These measurements were taken from patent US9029368B2.

Dear all, this message contains MIC results, target or system S. aureus 29213.

Quick batch: MIC for everything below.
1. COc1ccc2ncc(F)c(CCN3CC[C@H]4CN(c5ccc6c(n5)NC(=O)CS6)C(=O)O[C@@H]4C3)c2n1 (single isomer, unassigned) [Example 21]
2. COc1ccc2ncc(F)c(CCN3CC[C@@H]4CN(c5cnc6c(c5)OCCO6)C(=O)O[C@H]4C3)c2n1 (racemic) [Example 22]
3. COc1ccc2ncc(F)c(C(O)CN3CC[C@@H]4CN(c5ccc6c(c5)OCCO6)C(=O)O[C@H]4C3)c2n1 (mixture of isomers) [Example 6]
4. COc1ccc2ncc(F)c(CCN3CC[C@@H]4CN(c5ccc6c(c5)NC(=O)CS6)C(=O)O[C@H]4C3)c2n1 (racemic) [Example 7]
5. COc1cnc2ccc(=O)n(CCN3CC[C@@H]4CN(c5ccc6c(c5)OCCO6)C(=O)O[C@H]4C3)c2n1 (racemic) [Example 12]
6. COc1ccc2ccc(=O)n(CCN3CC[C@@H]4CN(c5ccc6c(n5)NC(=O)CO6)C(=O)O[C@H]4C3)c2n1 (racemic) [Example 25]

a:
≤ 0.031 µg/mL
≤ 0.031 µg/mL
0.063 µg/mL
≤ 0.031 µg/mL
≤ 0.031 µg/mL
≤ 0.031 µg/mL

* * *

Assign MIC to each entry below.
# Test system: S. aureus 29213
One number for each entry, in µg/mL.

Would you please look over these solved cases?
[
  {
    "compound": "O=C1O[C@H]2CN(C[C@H]3Cc4c(F)ccc5ccc(=O)n3c45)CC[C@@H]2CN1c1ccc2c(c1)OCCO2 (relative stereo) [Example 29]",
    "measure-unit": "µg/mL",
    "MIC": 0.25
  },
  {
    "compound": "COc1ccc2ccc(F)c(C(O)CN3CC[C@@H]4CN(c5ccc6c(c5)OCCO6)C(=O)O[C@H]4C3)c2n1 (mixture of isomers) [Example 16]",
    "measure-unit": "µg/mL",
    "MIC": 0.125
  },
  {
    "compound": "COc1cnc2ccc(F)c(C(O)CN3CC[C@@H]4CN(c5ccc6c(c5)OCCO6)C(=O)O[C@H]4C3)c2n1 (mixture of isomers) [Example 17]",
    "measure-unit": "µg/mL",
    "MIC": 0.063
  },
  {
    "compound": "COc1ccc2ccc(=O)n(CCN3CC[C@@H]4CN(c5ccc6c(c5)NC(=O)CO6)C(=O)O[C@H]4C3)c2n1 (racemic) [Example 34]",
    "measure-unit": "µg/mL",
    "MIC": 0.25
  },
  {
    "compound": "COc1ccc2ncc(F)c([C@H](O)CN3CC[C@@H]4CN(c5ccc6c(c5)OCCO6)C(=O)O[C@H]4C3)c2n1 (single isomer, unassigned) [Example 15]",
    "measure-unit": "µg/mL",
    "MIC": 0.063
  }
]

// switching to the query compound
q: Requested read-out: MIC. Entry: O=C1O[C@H]2CN(CC3Cn4c(=O)ccc5ncc(F)c3c54)CC[C@@H]2CN1c1ccc2c(c1)OCCO2 (mixture of isomers) [Example 30]
a: 0.5

* * *

Assign MIC to each entry below.
# Test system: S. aureus 29213

[
  {
    "compound": "COc1ccc2ncc(F)c(CCN3CC[C@@H]4CN(c5cc6c(nn5)OCCO6)C(=O)O[C@H]4C3)c2n1 (racemic) [Example 23]",
    "reading": "≤ 0.031 µg/mL"
  }
]

Quick batch: MIC for everything below.
1. COc1ccc2ncc(F)c(CCN3CC[C@@H]4CN(c5ccc6c(c5)OCCO6)C(=O)O[C@H]4C3)c2n1 (single isomer, unassigned) [Example 1]
2. COc1ccc2ncc(F)c([C@@H](O)CN3CC[C@@H]4CN(c5ccc6c(c5)OCCO6)C(=O)O[C@H]4C3)c2n1 (mixture of isomers) [Example 13]
3. COc1cnc2cccc(C(O)CN3CC[C@@H]4CN(c5ccc6c(c5)OCCO6)C(=O)O[C@H]4C3)c2n1 (mixture of isomers) [Example 18]
4. COc1ccc2ncc(=O)n(CCN3CC[C@@H]4CN(c5ccc6c(c5)OCCO6)C(=O)O[C@H]4C3)c2c1 (racemic) [Example 9]
5. COc1ccc2ncc(F)c(CCN3CC[C@@H]4CN(c5cc6c(nn5)OCCS6)C(=O)O[C@H]4C3)c2n1 (racemic) [Example 27]
6. COc1ccc2nccc(C(O)CN3CC[C@@H]4CN(c5ccc6c(c5)OCCO6)C(=O)O[C@H]4C3)c2n1 (mixture of isomers) [Example 3]

a:
1. ≤ 0.031 µg/mL
2. 0.063 µg/mL
3. 0.063 µg/mL
4. ≤ 0.031 µg/mL
5. ≤ 0.031 µg/mL
6. 0.125 µg/mL

Quick batch: MIC for everything below.
1. COc1ccc2ncc(F)c(CCN3CC[C@@H]4CN(c5cc6c(cn5)OCCO6)C(=O)O[C@H]4C3)c2n1 (racemic) [Example 24]
2. COc1ccc2ncc(F)c([C@H](O)CN3CC[C@H]4CN(c5ccc6c(c5)OCCO6)C(=O)O[C@@H]4C3)c2n1 (single isomer, unassigned) [Example 14]
3. COc1ccc2ccc(=O)n(CCN3CC[C@@H]4CN(c5ccc6c(c5)OCCO6)C(=O)O[C@H]4C3)c2n1 (racemic) [Example 10]
4. COc1ccc2ncc(F)c(C(O)CN3CC[C@@H]4CN(c5ccc6c(c5)NC(=O)CO6)C(=O)O[C@H]4C3)c2n1 (mixture of isomers) [Example 32]
5. COc1ccc2nccc(CCN3CC[C@@H]4CN(c5ccc6c(c5)OCCO6)C(=O)O[C@H]4C3)c2n1 (racemic) [Example 4]
6. COc1ccc2ncc(=O)n(CCN3CC[C@@H]4CN(c5ccc6c(c5)OCCO6)C(=O)O[C@H]4C3)c2n1 (racemic) [Example 11]

a:
≤ 0.031 µg/mL
≤ 0.031 µg/mL
≤ 0.031 µg/mL
0.125 µg/mL
0.063 µg/mL
≤ 0.031 µg/mL
